test system: 168753-222-R-J1-PDC complex spheroid viability; experiment: Anticancer human tumor 168753-222-R-J1-PDC patient-derived bladder carcinoma cell line growth inhibition [CLK]; conditions: second compound 0.1 µM; first compound 1 µM; stronger effect = lower value
We label by threshold. Values of viability, T/C strictly beneath 60% are class 1. Values of 60% and up are class 0.

See these solved cases before continuing.
{"COMPOUND": "CCc1c2c(nc3ccc(O)cc13)-c1cc3c(c(=O)n1C2)COC(=O)[C@]3(O)CC + CNC(=O)c1ccc(Nc2nc(OC3CCCC3)c3c(-c4ccc5nc(C)oc5c4)c[nH]c3n2)c(OC)c1", "CATEGORY_LABEL": "class 1"}
{"COMPOUND": "CC1COCCN1c1cc(C2(S(C)(=N)=O)CC2)nc(-c2ccnc3[nH]ccc23)n1 (stereo unspecified) + CN1CCN(c2cc(C(=O)Nc3cc4cc(-c5cnn(C)c5)ccc4cn3)ccn2)CC1", "CATEGORY_LABEL": "class 1"}

Item C=C(F)C(=O)N1CCN(c2nc(OCC3CCCN3C)nc3c2CCN(c2cccc4cccc(Cl)c24)C3)CC1CC#N (stereo unspecified) + CNC(=O)c1ccc(Nc2nc(OC3CCCC3)c3c(-c4ccc5nc(C)oc5c4)c[nH]c3n2)c(OC)c1 : viability, T/C beneath 60%, strictly?
class 0

For this compound, is viability, T/C lower than 60%? CCN1CCN(Cc2ccc(Nc3ncc(F)c(-c4cc(F)c5nc(C)n(C(C)C)c5c4)n3)nc2)CC1 + CNC(=O)c1ccc(Nc2nc(OC3CCCC3)c3c(-c4ccc5nc(C)oc5c4)c[nH]c3n2)c(OC)c1
class 1

Determine if COc1ccc([C@@H](O)c2cc(-c3ncnc4cc(N5CCOCC5)ccc34)c(F)cc2Cl)nn1 + CN1CCN(c2cc(C(=O)Nc3cc4cc(-c5cnn(C)c5)ccc4cn3)ccn2)CC1 shows viability, T/C strictly lower than 60%.
class 1

Please indicate whether the reported viability, T/C of CC(CO)NC(=O)c1cc(-c2ccc(Cl)cc2)nn(-c2cnn(C)c2)c1=O (stereo unspecified) + CN1CCN(c2cc(C(=O)Nc3cc4cc(-c5cnn(C)c5)ccc4cn3)ccn2)CC1 is strictly below 60%.
class 0

I wonder whether CC1COCCN1c1cc(C2(S(C)(=N)=O)CC2)nc(-c2ccnc3[nH]ccc23)n1 (stereo unspecified) + CNC(=O)c1ccc(Nc2nc(OC3CCCC3)c3c(-c4ccc5nc(C)oc5c4)c[nH]c3n2)c(OC)c1 has viability, T/C below 60%. Can you tell?
class 0

Hello, I'm reviewing records and need to know if viability, T/C of O=c1[nH]cc(F)c(=O)[nH]1 + CN1CCN(c2cc(C(=O)Nc3cc4cc(-c5cnn(C)c5)ccc4cn3)ccn2)CC1 is below 60%. Could you check?
class 1

---

system: 168753-222-R-J1-PDC complex spheroid viability; assay: Anticancer human tumor 168753-222-R-J1-PDC cell line growth inhibition [CLK]; conditions: second compound 1 µM; first compound 0.1 µM; stronger effect = lower value;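 also: luminescence signal used as surrogate for viable cell amount; viability measured after seven days of drug exposure; 100% = DMSO vehicle control wells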
Could you please mark Met for values of viability, T/C below 40% and Not met for values at or above it?

{"MOLECULE": "C=C(F)C(=O)N1CCN(c2nc(OCC3CCCN3C)nc3c2CCN(c2cccc4cccc(Cl)c24)C3)CC1CC#N (stereo unspecified) + CNC(=O)c1ccc(Nc2nc(OC3CCCC3)c3c(-c4ccc5nc(C)oc5c4)c[nH]c3n2)c(OC)c1", "MEASURED_ON": "168753-222-R-J1-PDC complex spheroid viability", "CATEGORY_LABEL": "Not met"}
{"MOLECULE": "COC1C=CCC(C)C(C)S(=O)(=O)NC(=O)c2ccc3c(c2)N(CC2CCC21)CC1(CCCc2cc(Cl)ccc21)CO3 (stereo unspecified) + CNC(=O)c1ccc(Nc2nc(OC3CCCC3)c3c(-c4ccc5nc(C)oc5c4)c[nH]c3n2)c(OC)c1", "MEASURED_ON": "168753-222-R-J1-PDC complex spheroid viability", "CATEGORY_LABEL": "Met"}
{"MOLECULE": "CC(Nc1ccc2c(c1)OCCn1cc(N3C(=O)OCC3C(F)F)nc1-2)C(N)=O (stereo unspecified) + CNC(=O)c1ccc(Nc2nc(OC3CCCC3)c3c(-c4ccc5nc(C)oc5c4)c[nH]c3n2)c(OC)c1", "MEASURED_ON": "168753-222-R-J1-PDC complex spheroid viability", "CATEGORY_LABEL": "Met"}
{"MOLECULE": "C=CC(=O)N1CCN(c2nc(=O)n(-c3c(C)ccnc3C(C)C)c3nc(-c4c(O)cccc4F)c(F)cc23)C(C)C1 (stereo unspecified) + CNC(=O)c1ccc(Nc2nc(OC3CCCC3)c3c(-c4ccc5nc(C)oc5c4)c[nH]c3n2)c(OC)c1", "MEASURED_ON": "168753-222-R-J1-PDC complex spheroid viability", "CATEGORY_LABEL": "Met"}

Let's switch to this molecule now.
Lab log: compare recorded viability, T/C with 40%; is it strictly lower for CC(CO)NC(=O)c1cc(-c2ccc(Cl)cc2)nn(-c2cnn(C)c2)c1=O (stereo unspecified) + CN1CCN(c2cc(C(=O)Nc3cc4cc(-c5cnn(C)c5)ccc4cn3)ccn2)CC1 ?
Met

---

tested on: 168753-222-R-J1-PDC complex spheroid viability; assay: Anticancer human tumor 168753-222-R-J1-PDC cell line growth inhibition [CLK]; conditions: second compound 0.1 µM; first compound 1 µM; stronger effect = lower value;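 also: luminescence signal used as surrogate for viable cell amount; viability measured after seven days of drug exposure; 100% = DMSO vehicle control wells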
Exercise: for every item that follows, state its recorded viability, T/C.
Give bare numbers, in %.

{"COMPOUND": "COC1C=CCC(C)C(C)S(=O)(=O)NC(=O)c2ccc3c(c2)N(CC2CCC21)CC1(CCCc2cc(Cl)ccc21)CO3 (stereo not given) + CNC(=O)c1ccc(Nc2nc(OC3CCCC3)c3c(-c4ccc5nc(C)oc5c4)c[nH]c3n2)c(OC)c1", "SCALE_UNIT": "%", "viability, T/C": 78.5}
{"COMPOUND": "CCN1CCN(Cc2ccc(Nc3ncc(F)c(-c4cc(F)c5nc(C)n(C(C)C)c5c4)n3)nc2)CC1 + CN1CCN(c2cc(C(=O)Nc3cc4cc(-c5cnn(C)c5)ccc4cn3)ccn2)CC1", "SCALE_UNIT": "%", "viability, T/C": 12.6}
{"COMPOUND": "Nc1ccccc1NC(=O)c1ccc(CNC(=O)OCc2cccnc2)cc1 + CNC(=O)c1ccc(Nc2nc(OC3CCCC3)c3c(-c4ccc5nc(C)oc5c4)c[nH]c3n2)c(OC)c1", "SCALE_UNIT": "%", "viability, T/C": 82.9}
{"COMPOUND": "O=C(c1cc(Cc2n[nH]c(=O)c3ccccc23)ccc1F)N1CCN(C(=O)C2CC2)CC1 + CN1CCN(c2cc(C(=O)Nc3cc4cc(-c5cnn(C)c5)ccc4cn3)ccn2)CC1", "SCALE_UNIT": "%", "viability, T/C": 40.3}

Pending compound:
So, Nc1ccn(C2OC(CO)C(O)C2(F)F)c(=O)n1 (stereo not given) + CNC(=O)c1ccc(Nc2nc(OC3CCCC3)c3c(-c4ccc5nc(C)oc5c4)c[nH]c3n2)c(OC)c1 ? Its viability, T/C was 49.9

---

system: 168753-222-R-J1-PDC complex spheroid viability; assay: Anticancer human tumor 168753-222-R-J1-PDC cell line growth inhibition [CLK]; conditions: second compound 3.16 µM; first compound 0.01 µM; stronger effect = lower value;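 also: luminescence signal used as surrogate for viable cell amount; viability measured after seven days of drug exposure; 100% = DMSO vehicle control wells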
For each record, write down the corresponding viability, T/C.
One number for each entry, in %.

Completed entries (count: 7):
{"COMPOUND": "CCc1c2c(nc3ccc(O)cc13)-c1cc3c(c(=O)n1C2)COC(=O)[C@]3(O)CC + CN1CCN(c2cc(C(=O)Nc3cc4cc(-c5cnn(C)c5)ccc4cn3)ccn2)CC1", "MEASURED_ON": "168753-222-R-J1-PDC complex spheroid viability", "viability, T/C / %": 0.15}
{"COMPOUND": "Cn1ncnc1[C@H]1c2n[nH]c(=O)c3cc(F)cc(c23)N[C@@H]1c1ccc(F)cc1 + CNC(=O)c1ccc(Nc2nc(OC3CCCC3)c3c(-c4ccc5nc(C)oc5c4)c[nH]c3n2)c(OC)c1", "MEASURED_ON": "168753-222-R-J1-PDC complex spheroid viability", "viability, T/C / %": 18.7}
{"COMPOUND": "CCc1c2c(nc3ccc(O)cc13)-c1cc3c(c(=O)n1C2)COC(=O)[C@]3(O)CC + CNC(=O)c1ccc(Nc2nc(OC3CCCC3)c3c(-c4ccc5nc(C)oc5c4)c[nH]c3n2)c(OC)c1", "MEASURED_ON": "168753-222-R-J1-PDC complex spheroid viability", "viability, T/C / %": 18.2}
{"COMPOUND": "CCN1CCN(Cc2ccc(Nc3ncc(F)c(-c4cc(F)c5nc(C)n(C(C)C)c5c4)n3)nc2)CC1 + CN1CCN(c2cc(C(=O)Nc3cc4cc(-c5cnn(C)c5)ccc4cn3)ccn2)CC1", "MEASURED_ON": "168753-222-R-J1-PDC complex spheroid viability", "viability, T/C / %": 0.13}
{"COMPOUND": "Cn1ncnc1[C@H]1c2n[nH]c(=O)c3cc(F)cc(c23)N[C@@H]1c1ccc(F)cc1 + CN1CCN(c2cc(C(=O)Nc3cc4cc(-c5cnn(C)c5)ccc4cn3)ccn2)CC1", "MEASURED_ON": "168753-222-R-J1-PDC complex spheroid viability", "viability, T/C / %": 0.06}
{"COMPOUND": "COc1c(OCCCN2CCOCC2)ccc2c3n(c(=NC(=O)c4cnc(N)nc4)nc12)CCN3 + CNC(=O)c1ccc(Nc2nc(OC3CCCC3)c3c(-c4ccc5nc(C)oc5c4)c[nH]c3n2)c(OC)c1", "MEASURED_ON": "168753-222-R-J1-PDC complex spheroid viability", "viability, T/C / %": 12.3}
{"COMPOUND": "COc1c(OCCCN2CCOCC2)ccc2c3n(c(=NC(=O)c4cnc(N)nc4)nc12)CCN3 + CN1CCN(c2cc(C(=O)Nc3cc4cc(-c5cnn(C)c5)ccc4cn3)ccn2)CC1", "MEASURED_ON": "168753-222-R-J1-PDC complex spheroid viability", "viability, T/C / %": 0.2}

// compound CCN1CCN(Cc2ccc(Nc3ncc(F)c(-c4cc(F)c5nc(C)n(C(C)C)c5c4)n3)nc2)CC1 + CNC(=O)c1ccc(Nc2nc(OC3CCCC3)c3c(-c4ccc5nc(C)oc5c4)c[nH]c3n2)c(OC)c1 , assay 168753-222-R-J1-PDC complex spheroid viability, viability, T/C value: 20.9
